Each entry below carries its recorded Kd.
Biological target: T1, human Siglec15-Fc fusion protein (human, UniProt Q6ZMC9 20-263)
T1 construct: Bought protein (Acro #SG5-H5253 is named for the selection); also called recombinant Siglec 15-Fc fusion protein (Acro #SG5-H5253); human Siglec15-Fc protein; not shown: Fc part of the bought fusion protein
T1 sequence (looked up): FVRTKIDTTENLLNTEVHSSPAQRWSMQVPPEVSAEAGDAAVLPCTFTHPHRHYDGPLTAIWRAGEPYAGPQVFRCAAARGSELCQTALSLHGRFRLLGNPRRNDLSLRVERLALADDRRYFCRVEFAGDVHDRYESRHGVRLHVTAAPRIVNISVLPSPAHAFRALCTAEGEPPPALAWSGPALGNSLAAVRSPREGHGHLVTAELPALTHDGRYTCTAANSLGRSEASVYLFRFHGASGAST
Experiment: SPR Biacore T200; Siglec15-Fc captured on Protein A chip, scFv as analyte
Write down the numeric answer in nM and omit the unit.

Look over these answered cases.
The recorded Kd for entry 2020EP032-A08 scFv (scFv, V domains shown, Tested as a single-chain scFv made in E. coli with a C-terminal flag and 6x His tag) VH: QVQLQQWGAGLLKPSETLSLTCAVYGGSFSGYYWSWIRQPPGKGLEWIGEINHSGSTNYNPSLKSRVTISVDTSKNQFSLKLSSVTAADTAVYYCARGVYYYDSSGPRDYFDYWGQGTLVTVSS VL: DIVMTQSPSSLSASVGDRVTITCQASQDISNYLNWYQQKPGKAPKLLIYDASNLKTGVPSRFSGSGSGTDFTFTITSLQPEDIGTYFCQQYGNLPYTFGQGTKLEIK equals 18.1

The recorded Kd for entry 2020EP083-G11 scFv (scFv, V domains shown, Tested as a single-chain scFv made in E. coli with a C-terminal flag and 6x His tag) VH: EVQLVESGGGLVEPGGSLRLSCAASGFTFSSYSMSWVRQAPGKGLEWVGRIKSETDGGTTDYAGPAKGKFIISRNDAENTVSLQMNSLKFEDTAVYHCTTDSSSSWFSYSFDNWGQETLVTVSS VL: EIVMTQSPATLSVSPGERATLSCRASQNVNSNLAWYQQKTGQAPRLLIFGASTRATGIPARFSGSGSGTEFTLTIGSLQSEDFAVYYCQQYNNWPPTFGGWTKVEIK equals 1.12

Now examine the next entry.
The recorded Kd for entry 2020EP032-B03 scFv (scFv, V domains shown, Tested as a single-chain scFv made in E. coli with a C-terminal flag and 6x His tag) VH: QVQLQQWGAGLLKPSETLSLTCAVYGGSFSGYYWSWIRQPPGKGLEWIGEINHSGSTNYNPSLKSRVTISVDTSKNQFSLKLSSVTAADTAVYYCARGPLRKYYDFWSGSRNYYYYGMDVWGQGTTVTVSS VL: QPVLTQDPAVSVALGQTVRITCQGDSLRSNYASWYQLKPGQAPVLVIYDKNNRPSGIPDRFSGSNSGNTASLTIAGAQAEDEADYYCTSRDSSGTVFGGGTKLTVL equals 2.11
